Target: purified human plasma kallikrein (Homo sapiens (Human), UniProt P03952)
Sequence (P03952 whole entry, looked up): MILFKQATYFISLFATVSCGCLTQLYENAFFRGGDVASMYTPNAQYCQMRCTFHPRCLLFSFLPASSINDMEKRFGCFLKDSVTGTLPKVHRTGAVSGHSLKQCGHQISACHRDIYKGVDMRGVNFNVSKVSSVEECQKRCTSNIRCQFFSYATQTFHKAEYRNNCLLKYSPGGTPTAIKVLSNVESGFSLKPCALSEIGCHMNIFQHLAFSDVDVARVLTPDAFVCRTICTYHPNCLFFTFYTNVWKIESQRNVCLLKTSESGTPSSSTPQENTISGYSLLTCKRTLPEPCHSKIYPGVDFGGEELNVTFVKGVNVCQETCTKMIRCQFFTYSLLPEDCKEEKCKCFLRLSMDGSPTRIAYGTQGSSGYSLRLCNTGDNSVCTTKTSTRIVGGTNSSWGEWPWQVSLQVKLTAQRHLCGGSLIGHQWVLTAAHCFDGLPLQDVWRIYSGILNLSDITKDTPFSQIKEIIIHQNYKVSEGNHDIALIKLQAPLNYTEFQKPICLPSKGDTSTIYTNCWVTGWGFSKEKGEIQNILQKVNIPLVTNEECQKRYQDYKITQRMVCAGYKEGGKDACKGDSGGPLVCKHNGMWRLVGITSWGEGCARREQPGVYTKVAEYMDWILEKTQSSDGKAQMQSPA
Sequence (P03952 whole entry partner, looked up): as the sequence (P03952 whole entry, looked up) above
Experiment: biochemical
Type: biochemical
Details: read-out: Plasma Kallikrein Ki
Structures can show the parent of a compound that is named as a salt.
Assay Metric: Ki (nM)
Answers are plain numbers, in nM.

Worked set:
{"Compound": "COC(=O)Nc1ccc2c(c1)NC(=O)[C@H](C)CCC[C@H](N1CCC(c3cccc(Cl)c3OC)=CC1=O)c1cc-2ccn1", "Units Symbol": "nM", "Ki": 2030}
{"Compound": "COC(=O)Nc1ccc2c(c1)NC(=O)[C@H](C)CCC[C@H](N1CCC(c3cccc(C)c3C)=CC1=O)c1cc-2ccn1", "Units Symbol": "nM", "Ki": 143}
{"Compound": "COC(=O)Nc1ccc2c(c1)NC(=O)[C@H](C)CCC[C@H](N1CC(C)C(c3c(F)ccc(Cl)c3F)=CC1=O)c1cc-2ccn1 (stereo partly drawn) [Example 73, TFA salt]", "Units Symbol": "nM", "Ki": 6}
{"Compound": "CC1CCC[C@H](N2CCC(c3c(C(F)(F)F)ccc(Cl)c3F)=CC2=O)c2cc(ccn2)-c2ccc(C(N)=O)cc2NC1=O (stereo partly drawn) [Example 108, TFA salt]", "Units Symbol": "nM", "Ki": 29}
{"Compound": "CC1CCC[C@H](N2CCC(c3c(Br)ccc(Cl)c3F)=CC2=O)c2cc(ccn2)-c2ccc(-c3nnc[nH]3)cc2NC1=O (stereo partly drawn) [Example 38, TFA salt]", "Units Symbol": "nM", "Ki": 6}

Look at each compound and report its Ki.
1. COC(=O)Nc1ccc2c(c1)NC(=O)[C@H](C)CCC[C@H](N1CCC(c3c(F)ccc(Cl)c3F)=C(C)C1=O)c1cc-2ccn1 [Example 64, TFA salt]
2. C[C@@H]1CCC[C@H](N2CCC(c3c(F)ccc(Cl)c3F)=CC2=O)c2cc(ccn2)-c2ccccc2NC1=O
3. COC(=O)Nc1ccc2c(c1)NC(=O)[C@H](C)CCC[C@H](N1CCC(c3c(C#N)ccc(Cl)c3F)=CC1=O)c1cc-2cc(=O)[nH]1 [Example 30, TFA salt]
4. COC(=O)Nc1ccc2c(c1)NC(=O)[C@H](C)CCC[C@H](N1CCC(c3c(C)ccc(Cl)c3F)=CC1=O)c1cc-2ccn1 [Example 2, TFA salt]
5. COC(=O)Nc1ccc2c(c1)NC(=O)[C@H](C)CCC[C@H](N1CCC(c3nccc(Cl)c3F)=CC1=O)c1cc-2cc(OC)n1 [Example 5, TFA salt]
6. C[C@@H]1CCC[C@H](N2CCC(c3c(F)ccc(Cl)c3F)=CC2=O)c2cc(ccn2)-c2ccc(NC3O[C@H](CO)[C@@H](O)[C@H](O)[C@@H]3O)cc2NC1=O (stereo partly drawn)
7. C[C@@H]1CCC[C@H](N2CCC(c3c(-n4cnnn4)ccc(Cl)c3F)=CC2=O)c2cc(ccn2)-c2cc(F)c(F)cc2NC1=O [Example 215, TFA salt]
8. COC(=O)Nc1ccc2c(c1)NC(=O)[C@H](C)CCC[C@H](N1CCC(c3c(C#N)ccc(Cl)c3F)=CC1=O)c1cc-2cc(OC)n1

Output line:
1. 171
2. 8
3. 3
4. 5
5. 3
6. 11.6
7. 3.61
8. 1

---

Answer each item with its documented log10 Ki.
Target: purified human plasma kallikrein (Homo sapiens (Human), UniProt P03952)
Assay: biochemical
Type: biochemical
Settings: read-out: Plasma Kallikrein Ki
Structures can show the parent of a compound that is named as a salt.
Form field - Quantity: Ki; Unit: nM; Scale: log10

{"Compound": "C[C@@H]1CCC[C@H](N2CCC(c3c(Br)ccc(Cl)c3F)=CC2=O)c2cc(ccn2)-c2ccc(C(=O)O)cc2NC1=O [Example 28, TFA salt]", "log10 Ki": 2.29}
{"Compound": "C[C@@H]1CCC[C@H](N2CCC(c3c(-n4cnnn4)ccc(Cl)c3F)=CC2=O)c2cc(ccn2)-c2cc(F)ccc2NC1=O [Example 184]", "log10 Ki": 0.40}
{"Compound": "CC(C)[C@H]1CCC[C@H](N2CCC(c3c(F)ccc(Cl)c3F)=CC2=O)c2cc(ccn2)-c2ccccc2NC1=O [Example 96, TFA salt]", "log10 Ki": 3.29}
{"Compound": "Cc1cc2cc3c(cc2[nH]1)NC(=O)[C@H](C)CCC[C@H](N1CCC(c2c(F)ccc(Cl)c2F)=CC1=O)c1cc-3ccn1 [Example 85, TFA salt]", "log10 Ki": 1.67}

Look at each compound and report its log10 Ki.
1. COC(=O)Nc1ccc2c(c1)NC(=O)[C@H](C)CCC[C@H](N1CCC(c3c(F)ccc(Cl)c3F)=CC1=O)c1nc-2c(Cl)[nH]1 [Example 135, TFA salt]
2. C[C@@H]1CCC[C@H](N2CCC(c3c(F)ccc(Cl)c3F)=CC2=O)c2cc(ccn2)-c2ccc(Br)cc2NC1=O [Example 69, TFA salt]

Output line:
1: -0.25; 2: 2.53
